Tested on: MOLT-4 leukemia
protocol: NCI tumour cell line growth inhibition, 48 h
Exercise: for every item that follows, state its recorded TGI.

I would be grateful if you could share the reported TGI for CSc1nc2c(nc(N)n2C2OCC(O)C(O)C2O)c(=O)n1C (centres undefined) .
> 100 µM

What about this molecule? O=c1[nH]nc(Cc2ccccc2)n1Nc1ccccc1
> 100 µM

Further, for CN(C)Cc1cc(N=Nc2ccccc2)cc(CN(C)C)c1O ?
> 100 µM

Field entry: Cc1nc2ccccc2c(=O)[nH]1
> 100 µM

Lookup COC(=O)CCC12CCC(O1)c1ccccc12 (centres undefined)
> 100 µM

Next entry: Cc1cc2c3ccccc3n(C)c2c2c1C(=O)C=CC2=O
46.3 µM

Try the molecule Cc1ccc(S(N)(=O)=O)cc1
> 1000 µM

Also need C=CC[C@H](C)CCC(=O)N1[C@H]2CC3CC[C@@]2(CS1(=O)=O)C3(C)C , thanks.
68.1 µM

Continue with CC(=O)n1c2ccccc2c2nc3nc(Oc4ccc(C)cc4)c4ccccc4c3cc21
> 100 µM

For CC(=O)NC1=C(C)C(=O)c2c(nc3n2CCC3O)C1=N (centres undefined) then?
> 100 µM

Consider next the molecule COC(=O)c1cc(C#Cc2cc(OC)ccc2OC)ccc1OC in the same way.
70 µM

Subsequent entry: CC(=O)O[C@@H]1CC2C(C)(C)CCCC2(C)C2=C1C(=O)C(C(C)C)=CC2=O (some centres undefined)
> 100 µM

Then CN(C)c1ccc(N=Nc2ccccn2)cc1 ?
40.9 µM

And the next one, COc1cc([C@@H]2c3cc4c(cc3[C@@H](NC(=O)c3ccccc3)C3COC(=O)[C@@H]32)OCO4)cc(OC)c1O (some centres undefined) ?
9.18 µM

Now this one: Cc1nc2sc(C(=O)Nc3ccccc3)c(N)c2cc1C(=O)/C=C/c1ccccc1
76.1 µM

Same thing, different molecule: CC[C@H]1OC([C@H](O)C/C=C\C#C[Si](C)(C)C)C/C=C\C[C@H]1O[Si](C)(C)C(C)(C)C (some centres undefined)
> 100 µM

Please do the same for COc1cc(C2c3cc4c(cc3[C@@H](Nc3cccc(C(C)=O)c3)C3COC(=O)[C@H]23)OCO4)cc(OC)c1O (some centres undefined) as well.
0.129 µM

What do we get for NNC(=O)CCC(=O)NC1C2CC3CC(C2)CC1C3 (centres undefined) ?
> 100 µM

Repeat with Cc1cccc(NC(=S)N=Nc2c(O)[nH]c3ccccc23)c1
> 100 µM

Could you do the same for Cc1cccc2c1NC(=S)[C@@H]1CCCN1C2=O , please?
> 100 µM

Same read-out for CC(C)C1CC(O)O[C@@H]([C@@H](C)[C@H]2CC(=O)[C@@H]3[C@@H]4[C@@H](O)[C@H](O)[C@H]5[C@@H](O)[C@H](O)CC[C@]5(C)[C@H]4CC[C@]23C)C1 (some centres undefined) ?
> 100 µM

Also need CN(C)CCCN1CCc2c([nH]c3ccccc23)C1c1cccnc1 (centres undefined) , thanks.
> 100 µM

Please do the same for COc1ccc(CCNC(=O)Cc2cc(OC)c(OC)cc2CO)cc1OC as well.
> 100 µM

Now try CC(C)(C)c1ccc(S(=O)(=O)N[C@H]2CC[C@H]3[C@@H]4CCc5cc(OS(=O)(=O)O)ccc5[C@H]4CC[C@]23C)cc1 .
9.55 µM

Param item: Fc1ccc2[nH]c3c(NCCCN4CCOCC4)ncnc3c2c1
> 100 µM

What about Cn1c2ccccc2c(=NNc2ccc(C(=O)O)cc2)c2ccccc21 ?
57.4 µM

Lookup CCN(Cc1ccccc1OC)c1ccc(CO)c(Cl)c1
46.2 µM

Repeat with COc1cc2c(c(OC)c1OC)-c1ccc(SC)cc1[C@H](OC(=O)c1ccccc1)CC2
> 100 µM

Lookup C[C@H]1[C@H](C)CC[C@]2(C(=O)O)CC[C@]3(C)C(=CC[C@@H]4[C@@]5(C)C/C(=C/c6cccnc6)[C@H](O)C(C)(C)[C@@H]5CC[C@]43C)[C@H]12
58.2 µM

Now this one: O=C(O)c1cc(=O)c2[nH]c3ccccc3c2s1
> 100 µM

Also need C[C@@H]1COCCN1c1cc(C2(S(C)(=N)=O)CC2)nc(-c2ccnc3[nH]ccc23)n1 (some centres undefined) , thanks.
49.4 µM

And what about the molecule Cc1ccc(Nc2cc(=O)[nH]c(=S)[nH]2)cc1 ?
> 100 µM

Another molecule: CN(C)C(=S)N=Nc1c(O)[nH]c2ccccc12
> 49.7 µM

Similarly, CCCCCCCCCCCCCC(=O)CBr ?
2.9 µM

Another: CC(=O)OCC1=C(C)C(OC(=O)C(OC(C)=O)[C@@H](NC(=O)c2ccccc2)c2ccccc2)CCC1(C)C (some centres undefined)
> 100 µM

// same read-out, input: COc1cccc(-c2cc(=O)c3c(C)ccnc3[nH]2)c1
> 100 µM

And for Cc1c(NC(=S)Nc2ccc(Cl)cc2)c(=O)n(-c2ccccc2)n1C ?
> 100 µM

Lookup Clc1ccc(C2NN=C3c4ccccc4OCC32)cc1 (centres undefined)
26.9 µM

Note, next up: CNC(=S)N/N=C/c1cccc(C)n1
> 87 µM

Likewise for COc1ccc2c(c1)c1c(n2CCN2CCCCC2)-c2ccccc2CC1 ?
40.7 µM

Next molecule up: O=C1C2=C(c3ccccc31)C(c1ccccc1)NC(=S)N2 (centres undefined)
> 100 µM

Repeat with COc1ccccc1N1CCN(Cn2c(=O)oc3cccnc32)CC1
> 100 µM

Would you kindly repeat that for NC(=O)N1N=C2c3ccccc3SC[C@H]2[C@@H]1c1ccccc1 ?
77.4 µM

// next record Cc1cccc(C(C)C)c1NC(=O)C(=O)CC(=O)c1c(C)n([O-])c2ccccc2[n+]1=O
59.8 µM
